Here we list compounds with their recorded Kdiss when tested on Mitogen-activated protein kinase 1 (Homo sapiens).
Sequence (P28482 whole entry): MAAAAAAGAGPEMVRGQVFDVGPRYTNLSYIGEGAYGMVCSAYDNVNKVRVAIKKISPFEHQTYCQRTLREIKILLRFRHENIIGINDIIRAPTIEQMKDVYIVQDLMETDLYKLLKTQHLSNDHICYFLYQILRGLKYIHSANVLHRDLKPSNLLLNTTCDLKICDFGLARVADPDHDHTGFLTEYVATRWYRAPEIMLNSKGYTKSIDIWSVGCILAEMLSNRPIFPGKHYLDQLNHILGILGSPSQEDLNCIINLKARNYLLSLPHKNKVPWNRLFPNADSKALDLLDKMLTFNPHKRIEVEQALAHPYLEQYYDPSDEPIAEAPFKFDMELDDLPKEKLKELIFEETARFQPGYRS
# unit: ×10⁻³ /s | format: bare number

- Cc1cccc(CN2C(=O)c3cc(-c4nc(Nc5ccnn5C)ncc4C)cn3C[C@H]2C)n1: 1
- Cn1nccc1Nc1nccc(-c2ccn([C@H](CO)c3ccc(Cl)c(F)c3)c(=O)c2)n1: 9.9

Alright, here's another compound for you.
Please respond with reported Kdiss (system Mitogen-activated protein kinase 1 (Homo sapiens)) for CC(C)Nc1cc(-c2c[nH]c(C(=O)N[C@H](CO)c3cccc(Cl)c3)c2)c(Cl)cn1 .
7.4

----------
Measured IC50 values are reported for all entries that follow.
TESTED_ON: Mitogen-activated protein kinase; ERK1/ERK2 (Homo sapiens, UniProt P27361+P28482)
PROTOCOL: Inhibition of ERK1/2 in human A375 cells assessed as inhibition of RSK phosphorylation after 2 hrs
Format: cell-based
# unit: nM | format: bare number

Example compounds with recorded IC50:
• Cc1cnc(Nc2ccnn2C)nc1-c1cn2c(n1)C(=O)N(Cc1ccc(F)c(F)c1)CC2 = 31
• Cc1cnc(Nc2ccnn2C)nc1-c1cc2n(c1)CCN(Cc1cccc(Cl)c1)C2=O = 10
• Cc1cnc(Nc2ccnn2C)nc1-c1cc2n(c1)CCN(Cc1ccc(F)c(F)c1)C2=O = 20
• COC[C@H]1Cn2cc(-c3nc(Nc4ccnn4C)ncc3C)cc2C(=O)N1Cc1cccc(C)n1 = 60
• Cc1cnc(Nc2ccnn2C)nc1-c1cn2c(n1)C(=O)N(Cc1cccc(Cl)c1)CC2 = 12

Please respond with reported IC50 (system Mitogen-activated protein kinase; ERK1/ERK2 (Homo sapiens, UniProt P27361+P28482)) for Cc1cnc(Nc2ccnn2C)nc1-c1cn2c(n1)C(=O)N(Cc1ccc(F)c(F)c1)[C@@H](C)C2 .
38

Please respond with reported IC50 (system Mitogen-activated protein kinase; ERK1/ERK2 (Homo sapiens, UniProt P27361+P28482)) for COC[C@H]1Cn2cc(-c3nc(Nc4ccnn4C)ncc3C)nc2C(=O)N1Cc1ccc(F)c(F)c1 .
5.7

----------
PROTOCOL: Half life in po dosed rat
Assay type: ADME, organism-based
ASSAY_CONTEXT: in vivo
EXPERIMENTAL_READOUT: half-life (h)
# unit: h | format: bare number

Supply measured half-life of COC[C@H]1Cn2cc(-c3nc(Nc4ccnn4C)ncc3C)nc2C(=O)N1Cc1ccc(F)c(F)c1 in your reply.
2.3

----------
Here we list compounds with their recorded Ka when tested on Mitogen-activated protein kinase 1 (Homo sapiens).

- Cc1cccc(CN2C(=O)c3cc(-c4nc(Nc5ccnn5C)ncc4C)cn3C[C@H]2C)n1: 1.3 ×10⁻⁶ /M/s
- CC(C)Nc1cc(-c2c[nH]c(C(=O)N[C@H](CO)c3cccc(Cl)c3)c2)c(Cl)cn1: 7.5 ×10⁻⁵ /M/s
- O=C(Nc1ccc2[nH]nc(-c3ccncc3)c2c1)[C@@H]1CCN(CC(=O)N2CCN(c3ccc(-c4ncccn4)cc3)CC2)C1: 9.4 ×10⁻⁵ /M/s

Supply measured Ka of COC[C@H]1Cn2cc(-c3nc(Nc4ccnn4C)ncc3C)nc2C(=O)N1Cc1ccc(F)c(F)c1 in your reply.
6.5 ×10⁻⁵ /M/s

----------
PROTOCOL: Volume of distribution at steady state in rat
Assay type: ADME
ASSAY_CONTEXT: in vivo, read-out: Vdss
EXPERIMENTAL_READOUT: Vd (L/kg)
# unit: L/kg | format: bare number

Supply measured Vd of COC[C@H]1Cn2cc(-c3nc(Nc4ccnn4C)ncc3C)nc2C(=O)N1Cc1ccc(F)c(F)c1 in your reply.
1.5

Value source: ChEMBL document CHEMBL4321846
